System: NCI-H522 lung
assay-details: NCI tumour cell line growth inhibition, 48 h
result-type: TGI

compound=Cc1ccc(NC(=O)CC/C(CC(=O)c2ccc(F)cc2)=N\NC(=O)C(=O)NN)cc1C observed="> 100 µM"
compound="C/C=C/C(C#N)(Cc1ccccc1)OP1(=O)OC(c2ccccc2)C(C)N1C (stereo not given)" observed="> 100 µM"
compound="CC1(O)CC2(O)C=CC3=C(C(=O)c4cccc(O)c4C3=O)C2(O)C(=O)C1O (stereo not given)" observed="0.29 µM"
compound=C#C[C@@]1(O)[C@@H](CO)O[C@@H](n2ccc3c(N)ncnc32)[C@@H]1O observed="3.82 µM"
compound=Cc1ccc2c(Nc3cccc(Cl)c3F)ncc(NC(=O)c3csc4c(N)ncnc34)c2c1 observed="> 100 µM"
